biological target: MMP-12 (Homo sapiens, UniProt P39900)
Sequence (P39900 106-470): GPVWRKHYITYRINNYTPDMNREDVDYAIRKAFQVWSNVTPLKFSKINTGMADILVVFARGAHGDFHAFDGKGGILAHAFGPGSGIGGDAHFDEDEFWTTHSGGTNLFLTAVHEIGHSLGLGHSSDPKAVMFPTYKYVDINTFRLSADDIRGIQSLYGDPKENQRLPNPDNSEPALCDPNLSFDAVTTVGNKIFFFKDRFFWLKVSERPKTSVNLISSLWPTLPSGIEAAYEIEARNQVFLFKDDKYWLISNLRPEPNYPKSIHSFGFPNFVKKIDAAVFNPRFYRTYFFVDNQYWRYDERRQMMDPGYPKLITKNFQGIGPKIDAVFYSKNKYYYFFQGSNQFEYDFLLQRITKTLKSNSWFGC
Some molecules, each annotated with its measured IC50.
QUANTITY KIND: IC50 (nM)

>  <MOLECULE>
O=C(NCCC[C@@H](NS(=O)(=O)c1ccc(OCc2cc(Br)cc(Br)c2)cc1)C(=O)NO)c1cccc(C(=O)NCCC[C@@H](NS(=O)(=O)c2ccc(OCc3cc(Br)cc(Br)c3)cc2)C(=O)NO)c1 [Compound 2]

>  <ASSAYED SYSTEM>
MMP-12 (Homo sapiens, UniProt P39900)

>  <READING UNIT>
nM

>  <EXPERIMENTAL VALUE>
41

$$$$
>  <MOLECULE>
NC(=O)NCCC[C@@H](NS(=O)(=O)c1ccc(OCc2cc(Br)cc(Br)c2)cc1)C(=O)NO [JG26, reference compound]

>  <ASSAYED SYSTEM>
MMP-12 (Homo sapiens, UniProt P39900)

>  <READING UNIT>
nM

>  <EXPERIMENTAL VALUE>
9.4

$$$$
